Cited source for all entries: patent US9499509B2

Tested on: S. aureus wild type strain (ATCC 25923)
experiment-summary: Antibiotic assay (absorption 660 nm, Example 2), S. aureus wild type
Assay type: cell-based, Staphylococcus aureus
test-context: Table 7; same values as MIC of Table 6
result-type: S. aureus WT ATCC 25923 (toxicity on bacteria)

molecule | comparison-operator | recorded-number
O=C(CCc1ccccc1)c1c(O)cc(O)c2c1OC(c1ccc(O)cc1)C(O)C2 (racemic) [XVI] | = | 5.9
O=C(CCc1ccccc1)c1c(O)cc2c(c1O)CC(O)C(c1ccc(O)cc1)O2 (racemic) [XIII] | = | 3.2
COc1ccc(CCC(=O)c2c(O)cc(O)c3c2O[C@@H](c2ccc(O)cc2)CC3)cc1 | = | 8.0
O=C(CCc1ccccc1)c1c(O)cc(O)c2c1OC(c1ccc(O)cc1)C(O)C2 (stereo not drawn) [XVII] | = | 13.0
COc1ccc(CCC(=O)c2c(O)cc(O)c3c2OC(c2ccc(O)cc2)C(O)C3)cc1 (racemic) [XIX] | = | 2.5
O=C(CCc1ccccc1)c1c(O)cc(O)c2c1OC(c1ccc(O)cc1)CC2 (racemic) | = | 1.27
COc1ccc(CCC(=O)c2c(O)cc(O)c3c2OC(c2ccc(O)cc2)CC3)cc1 (racemic) | = | 2.2
O=C(CCc1ccccc1)c1c(O)cc(O)c2c1OC(c1ccc(O)cc1)C(O)C2 (stereo not drawn) [XVIII] | = | 9.9
COc1cc(O)c(C(=O)CCc2ccc(O)cc2)c2c1CC[C@@H](c1ccc(O)cc1)O2 | < | 0.39
O=C(CCc1ccccc1)c1c(O)cc(O)c2c1O[C@H](c1ccc(O)cc1)CC2 | = | 2.5
COc1ccc(CCC(=O)c2c(O)cc(O)c3c2OC(c2ccc(O)cc2)C(O)C3)cc1 (stereo not drawn) [XXI] | = | 28
O=C(CCc1ccccc1)c1c(O)cc(O)c2c1O[C@@H](c1ccc(O)cc1)CC2 | = | 2.7
COc1ccc(CCC(=O)c2c(O)cc(O)c3c2OC(c2ccc(O)cc2)C(O)C3)cc1 (stereo not drawn) [XX] | = | 14.0
COc1cc(O)c(C(=O)CCc2ccc(O)cc2)c2c1CC[C@H](c1ccc(O)cc1)O2 | = | 0.58
O=C(CCc1ccccc1)c1c(O)cc2c(c1O)CC(O)C(c1ccc(O)cc1)O2 (stereo not drawn) [XIV] | = | 10.9
COc1cc(O)c(C(=O)CCc2ccc(O)cc2)c2c1CCC(c1ccc(O)cc1)O2 (racemic) | = | 5.3
O=C(CCc1ccccc1)c1c(O)cc2c(c1O)CC(O)C(c1ccc(O)cc1)O2 (stereo not drawn) [XV] | = | 13
COc1ccc(CCC(=O)c2c(O)cc(O)c3c2O[C@H](c2ccc(O)cc2)CC3)cc1 | > | 50

====

System: methicillin-resistant Staphylococcus aureus (MRSA) strains
experiment-summary: Antibiotic assay (resazurin, Example 1), MRSA strains
Assay type: cell-based
test-context: MRSA 8; read-out: IC50
pIC50: −log10 of the molar value.

smiles-record | pIC50
O=C(CCc1ccccc1)c1c(O)cc(O)c(C/C=C/c2ccc(O)cc2)c1O | 5.66
COc1ccc(CCC(=O)c2c(O)cc(O)c(C/C=C/c3ccc(O)cc3)c2O)cc1 | 5.64
COc1cc(O)c(C(=O)CCc2ccc(O)cc2)c(O)c1C/C=C/c1ccc(O)cc1 | 5.68
